Data provenance is paper PMC7558026.

biological target: SGLT2 (Homo sapiens, UniProt P31639); construct: Human full-length SGLT2 cDNA (NM_003041.3) was synthesized; expressed in transfected cells; host or cells: HEK293, retroviral transduction with pMSCVpuro-SGLT2, puromycin selected; assay: 1-NBDG uptake in HEK293 cells stably expressing SGLT2; format: cell-based; settings: HEK293, compound at 10 μM; triplicate; read-out: SGLT2 inhibitory rates
Sequence (P31639 whole entry): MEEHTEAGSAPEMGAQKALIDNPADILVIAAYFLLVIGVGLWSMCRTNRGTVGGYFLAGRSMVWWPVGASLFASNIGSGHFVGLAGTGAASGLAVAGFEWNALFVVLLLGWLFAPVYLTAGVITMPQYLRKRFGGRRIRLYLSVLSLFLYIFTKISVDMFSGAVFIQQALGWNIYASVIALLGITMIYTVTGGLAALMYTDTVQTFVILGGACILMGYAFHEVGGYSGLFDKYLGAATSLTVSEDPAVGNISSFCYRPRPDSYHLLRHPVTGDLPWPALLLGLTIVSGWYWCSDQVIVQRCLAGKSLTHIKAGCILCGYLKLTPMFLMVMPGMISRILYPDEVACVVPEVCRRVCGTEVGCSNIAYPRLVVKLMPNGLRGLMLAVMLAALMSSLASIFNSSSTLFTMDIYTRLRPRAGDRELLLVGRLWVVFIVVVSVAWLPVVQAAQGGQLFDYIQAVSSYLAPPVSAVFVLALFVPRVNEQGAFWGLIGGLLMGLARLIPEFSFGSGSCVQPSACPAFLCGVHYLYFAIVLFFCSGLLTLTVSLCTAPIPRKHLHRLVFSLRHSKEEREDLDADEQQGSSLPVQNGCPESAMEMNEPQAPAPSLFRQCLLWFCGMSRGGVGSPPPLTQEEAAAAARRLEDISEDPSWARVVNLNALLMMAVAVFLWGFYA
Threshold check on inhibition at 10 µM: at or above 10% gives criterion met, strictly below gives criterion not met.

Solved entries:
[
  {
    "molecule": "OCC1OC(c2c(O)cc(O)c(Cc3ccccc3)c2O)C(O)C(O)C1O (centres unmarked) [Compound 38a]",
    "answer.label": "criterion met"
  },
  {
    "molecule": "CCCCc1ccc(Cc2c(O)cc(O)cc2O)cc1 [Compound 47]",
    "answer.label": "criterion not met"
  },
  {
    "molecule": "COc1ccc(Cc2c(O)cc(O)cc2O)cc1OC [Compound 20]",
    "answer.label": "criterion not met"
  }
]

API: above_or_equal(metric=inhibition at 10 µM, cutoff=10%) for item CCCCc1ccc(Cc2c(O)cc(O)c(C3OC(CO)C(O)C(O)C3O)c2O)cc1 (centres unmarked) [Compound 47a]
criterion met
